- Test system: MALME-3M melanoma
- assay_notes: NCI tumour cell line growth inhibition, 48 h

{"compound": "O=C(/C=C/c1ccccc1Cl)c1ccc(O)cc1", "GI50": "16.3 µM"}
{"compound": "C[CH2][Sn]1([CH2]C)[O]C2C(O)OC(CO)C(O)C2[O]1 (stereo not given)", "GI50": "14 µM"}
{"compound": "CCCCC(SC(=S)N(CC)CC)C(=O)Nc1nc(CC(=O)OCC)cs1 (stereo not given)", "GI50": "24.8 µM"}
{"compound": "Cc1nc(NC(=O)COc2cccc(/C=C3\\COc4ccccc4C3=O)c2)sc1C", "GI50": "1.79 µM"}
{"compound": "C=C1CCCC(C)(C)[C@@H]1CC/C(C)=C/Cn1c2cccc(=O)c-2nc2ccccc21", "GI50": "5.76 µM"}
{"compound": "Nc1cccc(-c2nc3sccn3c2-c2ccnc(NCCCNS(=O)(=O)c3ccc(C(F)(F)F)cc3)n2)c1", "GI50": "3.94 µM"}
{"compound": "Clc1cccc(Cn2cc(Cc3cn(Cc4cccc(Cl)c4)c4ccccc34)c3ccccc32)c1", "GI50": "> 100 µM"}
{"compound": "COc1c(Nc2ncc(Cl)c(N[C@@H]3[C@H]4C=CC(C4)[C@@H]3C(N)=O)n2)ccc2c1CC[C@@H](N1CCOCC1)CC2", "GI50": "1.7 µM"}
{"compound": "Nc1ccccc1C#Cc1ccccc1C#Cc1ccccc1N", "GI50": "10.3 µM"}
{"compound": "COc1cccc(C2=NN(C(C)=O)C(c3cc(OC)c(OC)c(OC)c3)C2)c1 (stereo not given)", "GI50": "2.47 µM"}

---

Listing of entries alongside the reported GI50.
- Tested on: MCF7 breast
- assay_notes: NCI tumour cell line growth inhibition, 48 h

{"smiles": "Oc1c(Cl)cc(C(c2cc(Cl)c(O)c(Cl)c2)C(c2cc(Cl)c(O)c(Cl)c2)c2cc(Cl)c(O)c(Cl)c2)cc1Cl", "study_system": "MCF7 breast", "GI50": "3.18 µM"}
{"smiles": "O=C(Nc1cccc(-n2cc(-c3ccncc3)c(-c3cc(O)cc(Cl)c3)n2)c1)Nc1ccc(Cl)c(Cl)c1", "study_system": "MCF7 breast", "GI50": "2.8 µM"}
{"smiles": "CCOc1ccc(/C=N/Nc2cc(C)nc3ccc(Cl)cc23)cc1", "study_system": "MCF7 breast", "GI50": "1.67 µM"}

---

- Test system: UO-31 renal
- assay_notes: NCI tumour cell line growth inhibition, 48 h
measured_metric: TGI (µM)

{"compound": "CC(Br)C(=O)c1ccc2cc(Br)c3ccccc3c2c1 (stereo not given)", "limit_sign": "=", "observed_result": 32}
{"compound": "NC(N)=NS(=O)(=O)c1ccc(Nc2c3ccccc3nc3ccc(C(=O)Nc4ccc(S(N)(=O)=O)cc4)cc23)cc1", "limit_sign": ">", "observed_result": 100}
{"compound": "CC(C)=CCC/C(C)=C/CC/C(C)=C/[C@@H]1[C@@H](CO)[C@]1(C)CC/C=C(\\C)CCC=C(C)C", "limit_sign": "=", "observed_result": 34.3}
{"compound": "O=C1C(=O)c2ccccc2C=C1[N+](=O)[O-]", "limit_sign": ">", "observed_result": 100}
{"compound": "COC(=O)c1c2c(c[n+]([O-])c1C)C(=O)C(NCc1ccccc1)=CC2=O", "limit_sign": "=", "observed_result": 2.58}

---

- Test system: A498 renal
- assay_notes: NCI tumour cell line growth inhibition, 48 h

{"compound": "NC(=O)ON=C1CCN(Cc2ccccc2)CC1", "TGI": "> 100 µM"}
{"compound": "COc1cc(C2=Nc3c/c(=C\\c4c(O)[nH]c5ccc(Cl)cc45)ccc3=N2)cc(OC)c1OC", "TGI": "> 100 µM"}
{"compound": "OCC1C(O)C(O)[C@@H]2SCCN12 (stereo not given in full)", "TGI": "> 100 µM"}
{"compound": "C/C(=C\\CNc1ncnc2nc(Cl)[nH]c12)CO", "TGI": "> 100 µM"}
{"compound": "C[CH2][Sn]1([CH2]C)[O]C2C(O)OC(CO)C(O)C2[O]1 (stereo not given)", "TGI": "42 µM"}
{"compound": "C/C=C/C=C/C1=NN(c2cccc(S(=O)(=O)O)c2)C2(C1)C(Cl)C(=O)N2c1nc2ccccc2s1 (stereo not given)", "TGI": "31.8 µM"}
{"compound": "COc1ccc(C2=C(Br)C(=O)OC2)cc1Cl", "TGI": "> 80.7 µM"}
{"compound": "Nc1nn(C(=O)Nc2ccc(Cc3ccccc3)cc2)c2ccc(Cl)cc12", "TGI": "52.8 µM"}
{"compound": "COc1cc(S(=O)(=O)N/N=C/C=C/c2ccccc2)c(OC)cc1NC(C)=O", "TGI": "> 100 µM"}
{"compound": "CCOC(=O)c1c(N2CCOCC2)[nH]c(=O)c(C(c2c(O)c(C(=O)OCC)c(N3CCOCC3)[nH]c2=O)C(C)C)c1O", "TGI": "> 100 µM"}

---

- Tested on: U251 CNS
- assay_notes: NCI tumour cell line growth inhibition, 48 h

{"compound": "Cc1cc(N2CCOCC2)nc(N(CCCNc2ccnc3cc(Cl)ccc23)Cc2ccc3c(c2)OCO3)n1", "limit_sign": "=", "TGI, µM": 2.12}
{"compound": "NC(=O)c1cccc(N)c1", "limit_sign": ">", "TGI, µM": 100}
{"compound": "CN(C)c1cc2c(cc1Sc1nc3c(N)nccc3n1CCNCC(C)(C)C)OCO2", "limit_sign": "=", "TGI, µM": 14.8}
{"compound": "C[C@@]12CCC[C@@](C)(C(=O)O)C1CC[C@]13C=C(CO)[C@](O)(CCC12)C3 (some centres undefined)", "limit_sign": ">", "TGI, µM": 100}
{"compound": "CCOC(=O)CC/C(C)=N\\n1c(Cc2ccc(Cl)cc2)n[nH]c1=O", "limit_sign": ">", "TGI, µM": 100}
{"compound": "O=[N+]([O-])c1ccccc1S(=O)(=O)c1ccccc1[N+](=O)[O-]", "limit_sign": "=", "TGI, µM": 66.5}
{"compound": "Nc1cccc(-c2nc3sccn3c2-c2ccnc(NCCCNS(=O)(=O)c3ccc(C(F)(F)F)cc3)n2)c1", "limit_sign": ">", "TGI, µM": 100}
{"compound": "C/C=C1/CN2CCC34C5=CC(=O)C(c6cc7c(cc6OC)N(C)C6=C(C(=O)OC)CC8(CC)CCCN9CCC67C98)=CC5=NC23CCC1C4C(=O)OC (centres undefined)", "limit_sign": "=", "TGI, µM": 28.6}
{"compound": "CCCCCCCCCCCCCCCCc1c(C(=O)OC)[nH]c(=S)[nH]c1=O", "limit_sign": ">", "TGI, µM": 50}

---

Listing of entries alongside the reported TGI.
- Test system: HCC-2998 colon
- assay_notes: NCI tumour cell line growth inhibition, 48 h
measured_metric: TGI (µM)

{"molecule": "CC(C)(C)OC(=O)N1C[C@H](CC(=O)OCc2ccccc2)C[C@H]1C(=O)OCC(Cl)(Cl)Cl", "measured_metric": "TGI", "limit_sign": "=", "observed_result": 45.3}
{"molecule": "O=c1oc2ccccc2c(-c2ccc(O)cc2)c1Oc1ccc(Cl)cc1", "measured_metric": "TGI", "limit_sign": "=", "observed_result": 46.1}
{"molecule": "Cn1c(O)c(C=N)c(=O)n(C)c1=O", "measured_metric": "TGI", "limit_sign": ">", "observed_result": 100}
{"molecule": "COc1cccc(N=N/C(=N/NC(=O)c2cc(Cl)ccc2O)c2ccc(N(CCC#N)CCC#N)cc2C)c1", "measured_metric": "TGI", "limit_sign": "=", "observed_result": 92}
{"molecule": "COc1ccc(Cc2cc(OC)c(OC)c(OC)c2)cc1O", "measured_metric": "TGI", "limit_sign": ">", "observed_result": 65.9}
{"molecule": "O=C1CCCCC1C1(O)C(=O)Nc2cc(F)ccc21 (configuration not stated)", "measured_metric": "TGI", "limit_sign": ">", "observed_result": 100}
{"molecule": "CNC(=O)c1cc(Oc2ccc3nc(NC(=O)c4cc(C(F)(F)F)cc(C(F)(F)F)c4)sc3c2)ccn1", "measured_metric": "TGI", "limit_sign": "=", "observed_result": 24.7}
{"molecule": "COC(=O)C1=C(O)C(C(=O)OC)[C@]2(O)[C@H](C(=O)OC)[C@H]1C[C@@H](c1ccccc1OC)[C@H]2C(=O)OC (some centres not stated)", "measured_metric": "TGI", "limit_sign": "=", "observed_result": 22.2}
{"molecule": "COc1ccc(Cc2nc3cc(Cl)ccc3o2)cc1", "measured_metric": "TGI", "limit_sign": "=", "observed_result": 56.8}
{"molecule": "COC(OC)C1(c2ccccc2)Oc2ccccc2C1=O (configuration not stated)", "measured_metric": "TGI", "limit_sign": ">", "observed_result": 100}
{"molecule": "CSc1sc(C)cc1-c1nsc(=O)o1", "measured_metric": "TGI", "limit_sign": ">", "observed_result": 100}
{"molecule": "COc1ccccc1/C=C1\\CCC(CN(C)C)C1=O (configuration not stated)", "measured_metric": "TGI", "limit_sign": "=", "observed_result": 14.2}
{"molecule": "NC(CCc1ccccc1)(C(=O)O)c1ccccc1 (configuration not stated)", "measured_metric": "TGI", "limit_sign": ">", "observed_result": 100}
{"molecule": "COc1cc(O)c2c(=O)c3ccccc3n(C)c2c1", "measured_metric": "TGI", "limit_sign": ">", "observed_result": 100}
{"molecule": "COc1cc(C2=Nc3c/c(=C\\c4c(O)[nH]c5ccc(Cl)cc45)ccc3=N2)cc(OC)c1OC", "measured_metric": "TGI", "limit_sign": "=", "observed_result": 21.8}
{"molecule": "CCOC(=O)N/N=C/C1=NN(C(=O)OCC)S(=O)C1C (configuration not stated)", "measured_metric": "TGI", "limit_sign": ">", "observed_result": 100}
{"molecule": "CN(C)C/C=C(/c1ccc(Br)cc1)c1cccnc1", "measured_metric": "TGI", "limit_sign": "=", "observed_result": 29.8}
{"molecule": "CC(=O)NC(ON1C(=O)COc2ccccc21)C(Cl)(Cl)Cl (configuration not stated)", "measured_metric": "TGI", "limit_sign": ">", "observed_result": 100}
{"molecule": "Oc1c(Cl)cc(C(c2cc(Cl)c(O)c(Cl)c2)C(c2cc(Cl)c(O)c(Cl)c2)c2cc(Cl)c(O)c(Cl)c2)cc1Cl", "measured_metric": "TGI", "limit_sign": "=", "observed_result": 14.3}
{"molecule": "COc1ccc(Nc2nc(NCc3ccccc3)c3ccccc3n2)cc1", "measured_metric": "TGI", "limit_sign": "=", "observed_result": 7.6}
{"molecule": "O=C1C(=O)c2ccccc2C=C1[N+](=O)[O-]", "measured_metric": "TGI", "limit_sign": ">", "observed_result": 100}
{"molecule": "CCOC(=O)[C@H](Cc1ccccc1)NC(=O)c1nc[nH]c1[N+](=O)[O-]", "measured_metric": "TGI", "limit_sign": ">", "observed_result": 100}
